- testTarget: truncated human IRE1a WT protein, containing the catalytic part (aa 547-977) (Homo sapiens)
- Construct: containing the catalytic part (aa 547-977)
- Sequence (O75460 547-977): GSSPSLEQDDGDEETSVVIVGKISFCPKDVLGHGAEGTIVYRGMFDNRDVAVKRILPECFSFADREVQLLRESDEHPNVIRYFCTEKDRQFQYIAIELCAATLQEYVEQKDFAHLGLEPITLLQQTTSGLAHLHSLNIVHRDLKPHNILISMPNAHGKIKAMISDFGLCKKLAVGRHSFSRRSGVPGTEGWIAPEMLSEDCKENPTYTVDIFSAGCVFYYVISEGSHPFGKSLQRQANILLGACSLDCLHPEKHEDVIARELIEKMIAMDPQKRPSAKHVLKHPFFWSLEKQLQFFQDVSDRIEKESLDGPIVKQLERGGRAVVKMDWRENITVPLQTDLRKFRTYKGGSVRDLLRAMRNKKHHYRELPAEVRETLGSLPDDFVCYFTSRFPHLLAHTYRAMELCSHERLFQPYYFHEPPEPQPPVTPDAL
- experimentSummary: IRE1a biochemical enzyme splice assay
- assaySetup: 20 nM protein, 500 nM fluorescently quenched IRE1a substrate, 40 min at room temperature; read-out: EnzymeSplice_hIRE1a_IC50 (IC50)
metric: IC50

**Query** Any idea what IC50 was measured for CCc1cc(-c2csc3c(NS(=O)(=O)c4ccccc4Cl)ncnc23)cc2cnc(N[C@H]3CCCNC3)nc12 [Compound I-23] ?
**Result** < 0.1 µM

**Query** Any idea what IC50 was measured for CCc1cc(-c2ccc3c(NS(=O)(=O)c4ccccc4Cl)ncnn23)cc2cnc(N[C@H]3CCCC[C@H]3O)nc12 [Compound I-10] ?
**Result** > 1 µM

**Query** Any idea what IC50 was measured for CCc1cc(-c2ccc3c(NS(=O)(=O)C4CCCCC4)ncnn23)cc2cnc(N[C@H]3CCCNC3)nc12 [Compound I-3] ?
**Result** < 0.1 µM

**Query** Any idea what IC50 was measured for CCc1cc(-c2ccc3c(NS(=O)(=O)N4CCCC4)ncnn23)cc2cnc(N[C@H]3CCCNC3)nc12 [Compound I-30] ?
**Result** < 0.1 µM

**Query** Any idea what IC50 was measured for CCc1cc(-c2ccc3c(NS(=O)(=O)Cc4ccccc4)ncnn23)cc2cnc(N[C@H]3CCCNC3)nc12 [Compound I-7] ?
**Result** < 0.1 µM

**Query** Any idea what IC50 was measured for CCc1cc(-c2ccc3c(NS(=O)(=O)Cc4cccc(F)c4F)ncnn23)cc2cnc(N[C@H]3CCCNC3)nc12 [Compound I-21] ?
**Result** < 0.1 µM

**Query** Any idea what IC50 was measured for CCc1cc(-c2ccc3c(NS(=O)(=O)c4ccccc4Cl)ncnn23)cc2cnc(NC3CC4(COC4)C3)nc12 [Compound I-28] ?
**Result** 0.1 to 1 µM

**Query** Any idea what IC50 was measured for CCc1cc(-c2ccc3c(NS(=O)(=O)c4ccccc4Cl)ncnn23)cc2cnc(NC[C@@H]3CCCNC3)nc12 [Compound I-17] ?
**Result** 0.1 to 1 µM

**Query** Any idea what IC50 was measured for CCc1cc(-c2ccc3c(NS(=O)(=O)c4ccccc4Cl)ncnn23)cc2cnc(N[C@@H]3CNC[C@H](C)C3)nc12 [Compound I-31] ?
**Result** < 0.1 µM

**Query** Any idea what IC50 was measured for CCc1cc(-c2ccc3c(NS(=O)(=O)c4ccccc4Cl)ncnn23)cc2cnc(N[C@H]3CCNC3)nc12 [Compound I-11] ?
**Result** < 0.1 µM

**Query** Any idea what IC50 was measured for CCc1cc(-c2ccc3c(NS(=O)(=O)c4ccccc4)ncnn23)cc2cnc(N[C@H]3CCCNC3)nc12 [Compound I-26] ?
**Result** < 0.1 µM

**Query** Any idea what IC50 was measured for CCc1cc(-c2ccc3c(NS(=O)(=O)c4ccc(OC(F)(F)F)cc4)ncnn23)cc2cnc(N[C@H]3CCCNC3)nc12 [Compound I-27] ?
**Result** 0.1 to 1 µM

**Query** Any idea what IC50 was measured for CCc1cc(-c2ccc3c(NC[C@H](O)CC)ncnn23)cc2cnc(N[C@H]3CCCNC3)nc12 [Compound I-20] ?
**Result** 0.1 to 1 µM

**Query** Any idea what IC50 was measured for CCc1cc(-c2ccc3c(NS(=O)(=O)c4ccccc4Cl)ncnn23)cc2cnc(N[C@H]3CC[C@H](N)CC3)nc12 [Compound I-32] ?
**Result** < 0.1 µM
